EXPERIMENT SUMMARY: LC-MS analysis of aged DMSO stocks
Format: physicochemical
CONDITION DESCRIPTION: Table 2; DMSO stock, LC-MS on day 38
QUANTITY: Decomposition product observed: bis-enone (equivalent to 8)

>>> assay_value("O=C(NNC(=O)c1cc(-c2ccco2)nc2ccccc12)NC1CCCCC1")
"-"

---

EXPERIMENT SUMMARY: LC-MS analysis of aged DMSO stocks
Type: physicochemical
CONDITION DESCRIPTION: Table 2; DMSO stock, LC-MS on day 38
QUANTITY: Decomposition product observed: carboxylic acid (equivalent to 6)

>>> assay_value("Cc1ccc(-c2cc(C(=O)NCc3ccc4c(c3)OCO4)c3ccccc3n2)o1")
"+ 351.2 (351.1)"
>>> assay_value("COc1ccc(CCNC(=O)c2cc(-c3ccc(C)o3)nc3ccccc23)cc1")
"+ 351.2 (351.1)"

---

EXPERIMENT SUMMARY: LC-MS analysis of aged DMSO stocks
Type: physicochemical
CONDITION DESCRIPTION: Table 1; DMSO stock, LC-MS on day 38
QUANTITY: Decomposition product observed: carboxylic acid (analogous to 6)

The cases that follow already have their Decomposition product observed: carboxylic acid (analogous to 6) on record.
>>> assay_value("c1coc(-c2ccc3ccccc3n2)c1")
"-"
>>> assay_value("O=C(O)c1ccnc(-c2ccco2)c1")
"-"
>>> assay_value("O=C(Nc1nnc(-c2ccncc2)s1)c1ccnc(-c2ccco2)c1")
"-"
>>> assay_value("O=C(Nc1nnc(-c2ccncc2)s1)c1cc(-c2ccco2)cc2ccccc12")
"+ 377.2 (377.1)"

Please turn your attention to the following entry.
Fill in: Decomposition product observed: carboxylic acid (analogous to 6) of Cc1ccc(-c2cc(C(=O)Nc3nnc(-c4ccncc4)s3)c3ccccc3c2)o1 is ___
+ 377.2 (377.1)
